# target.or.test.system: human FLT3 (hFLT3) (human) (UniProt P36888)
# Sequence (P36888 27-543 limits assumed): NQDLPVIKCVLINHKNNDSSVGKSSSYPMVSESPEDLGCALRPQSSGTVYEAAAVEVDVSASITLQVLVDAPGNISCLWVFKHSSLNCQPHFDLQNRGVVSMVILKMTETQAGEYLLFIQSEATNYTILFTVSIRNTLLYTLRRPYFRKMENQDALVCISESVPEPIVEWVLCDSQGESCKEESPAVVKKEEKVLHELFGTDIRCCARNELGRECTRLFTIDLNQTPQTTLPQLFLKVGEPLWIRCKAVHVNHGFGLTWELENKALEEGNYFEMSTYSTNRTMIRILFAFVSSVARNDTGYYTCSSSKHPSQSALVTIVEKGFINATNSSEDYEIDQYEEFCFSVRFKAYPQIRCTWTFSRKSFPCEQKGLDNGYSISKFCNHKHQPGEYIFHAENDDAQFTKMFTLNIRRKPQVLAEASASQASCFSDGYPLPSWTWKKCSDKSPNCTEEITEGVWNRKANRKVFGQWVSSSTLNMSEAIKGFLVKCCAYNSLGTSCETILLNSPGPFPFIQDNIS
# assay.remarks: SPR, Table 6, scFv format; set-up and antigen species not described
# kon per entry
Give the value in M⁻¹ s⁻¹ but do not write M⁻¹ s⁻¹ after it.

Before answering, review these 4 worked examples.
P4H11 (scFv format) (scFv, part only; not given: linker, domain order, tags, V domains shown, not shown: another chain or arm of the molecule; small tags and cut ends) VH: EVQLLESGGGLVQPGGSLRLSCAASGFTFSSYAMNWVRQAPGKGLEWVSSISGGGRSTYYADSVKGRFTISRDNSKNTLYLQMNSLRAEDTAVYYCARDLSPSDVGWGYGFDIWGQGTLVTVSS VL: EIVLTQSPGTLSLSPGERATLSCRASQSVSNTYLAWYQQKPGQAPRLLIYDTSSRATGIPDRFSGSGSGTDFTLTISRLEPEDFAVYYCQQYGSSLTFGQGTKVEIK = 160000
P5A3 (scFv format) (scFv, part only; not given: linker, domain order, tags, V domains shown, not shown: another chain or arm of the molecule; small tags and cut ends) VH: QVQLVQSGAEVKKPGSSVKVSCKASGGTFSSYYIGWVRQAPGQGLEWMGGIIPWFGTANYAQKFQGRVTITADKSTNTAYMELSSLRSEDTAVYYCAADHHDSPSGYTSGGFDVWGQGTLVTVSS VL: QSALTQPASVSGSPGQSITISCTGTSSDVGGYNYVSWYQQHPGKAPKLMIYEVSKRPSGVPDRFSGSKSGNTASLTVSGLQAEDEADYYCSSYAGSNTVVFGGGTKLTVL = 81000
P1A5 (scFv format) (scFv, part only; not given: linker, domain order, tags, V domains shown, not shown: another chain or arm of the molecule; small tags and cut ends) VH: QVQLVQSGAEVKKPGSSVKVSCKASGGVFSRYALSWVRQAPGQGLEWMGGIIPMLGFANYAQKFQGRVTITADESTSTAYMELSSLRSEDTAVYYCATLDFGALDYWGQGTLVTVSS VL: EIVLTQSPGTLSLSPGERATLSCRASQAVDSSDLAWYQQKPGQAPRLLIYDAYTRPSGIPDRFSGSGSGTDFTLTISRLEPEDFAVYYCQQYGSSPLTFGGGTKLEIK = 259000
P3E10 (scFv format) (scFv, part only; not given: linker, domain order, tags, V domains shown, not shown: another chain or arm of the molecule; small tags and cut ends) VH: QVQLVQSGAEVKKPGSSVKVSCKASGGTFSSYAIQWVRQAPGQGLEWMGGIVGSWGLANYAQKFQGRVTITTDKSTSTAYMELSSLRSEDTAVYYCATSAFGELASWGQGTLVTVSS VL: EIVLTQSPGTLSLSPGERATLSCRASQSVPSSQLAWYQQKPGQAPRLLIYDASSRATGIPDRFSGSGSGTDFTLTISRLEPEDFAVYYCQQYGSSPLTFGQGTKVEIK = 172000

## Task State its kon for this binder: P5F7 (scFv format) (scFv, from a related filing, part only) scFv: EVQLLESGGGLVQPGGSLRLSCAASGFTFSSYAMNWVRQAPGKGLEWVSSISGGGRSTYYADSVKGRFTISRDNSKNTLYLQMNSLRAEDTAVYYCARDLSPSDVGWGYGFDIWGQGTLVTVSSGGGGSGGGGSGGGGSEIVLTQSPATLSLSPGERATLSCRASQSVSSNLAWYQQKPGQAPRLLIYDTFTRATGIPARFSGSGSGTDFTLTISRLEPEDFAVYYCQQYGSSPPTFGQGTRLEIK
## Result 189000
